assay: Binding affinity to human recombinant nicotinic (CNS) receptor
pIC50: −log10 of the molar value.
Measurement Type: pIC50

>  <Molecule>
C[C@H]1Cc2c([nH]c3cc(Cl)c(F)cc23)[C@@]2(N1)C(=O)Nc1ccc(Cl)cc12 [CIPARGAMIN]

>  <Measurement Type>
pIC50

>  <Result>
< 5.00

$$$$

###

biological target: D(4) dopamine receptor (Homo sapiens); assay: Binding affinity to human recombinant dopamine D4.4 receptor
Sequence (P21917 whole entry): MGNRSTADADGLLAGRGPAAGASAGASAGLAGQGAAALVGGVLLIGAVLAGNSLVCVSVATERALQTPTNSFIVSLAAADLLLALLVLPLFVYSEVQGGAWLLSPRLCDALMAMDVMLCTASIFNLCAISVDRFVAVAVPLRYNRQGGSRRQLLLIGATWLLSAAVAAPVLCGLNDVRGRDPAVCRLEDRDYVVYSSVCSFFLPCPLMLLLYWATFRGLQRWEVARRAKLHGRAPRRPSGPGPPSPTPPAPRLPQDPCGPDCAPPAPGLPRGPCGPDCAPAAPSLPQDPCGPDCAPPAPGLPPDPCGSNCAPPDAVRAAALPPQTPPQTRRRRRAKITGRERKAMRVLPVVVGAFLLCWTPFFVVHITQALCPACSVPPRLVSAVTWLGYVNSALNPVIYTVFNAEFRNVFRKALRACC
pIC50: −log10 of the molar value.
Measurement Type: pIC50

>  <Compound>
C[C@H]1Cc2c([nH]c3cc(Cl)c(F)cc23)[C@@]2(N1)C(=O)Nc1ccc(Cl)cc12 [CIPARGAMIN]

>  <Result>
< 5.00

$$$$

###

experiment: Cmax in CD1 mouse at 24.6 mg/kg, po; format: ADME, organism-based; set-up: dose 24.6 mg/kg, route oral; settings: in vivo

>  <Compound>
C[C@H]1Cc2c([nH]c3cc(Cl)c(F)cc23)[C@@]2(N1)C(=O)Nc1ccc(Cl)cc12 [CIPARGAMIN]

>  <Units Symbol>
µM

>  <Cmax>
9.17

$$$$

###

test system: Plasmodium falciparum; assay: Antimalarial activity against Plasmodium falciparum assessed as […] by SYBR green based fluorescence assay; type: functional, organism-based; conditions: Plasmodium falciparum
pIC50: −log10 of the molar value.
Each entry below carries its reported pIC50.
Measurement Type: pIC50

>  <Compound>
C[C@@H]1C[C@@H]([C@H](O)CC2CC(=O)NC(=O)C2)C(=O)[C@@H](C)C1 [CYCLOHEXIMIDE]

>  <Numeric Result>
6.70

$$$$
>  <Compound>
C[C@H]1Cc2c([nH]c3cc(Cl)c(F)cc23)[C@@]2(N1)C(=O)Nc1ccc(Cl)cc12 [CIPARGAMIN]

>  <Numeric Result>
9.30

$$$$
>  <Compound>
C[C@@H]1CC[C@H]2[C@@H](C)C(=O)O[C@@H]3O[C@@]4(C)CC[C@@H]1[C@]32OO4 [ARTEMISININ]

>  <Numeric Result>
7.82

$$$$
>  <Compound>
COc1ccc(C[C@H]2NC[C@H](O)[C@H]2OC(C)=O)cc1 [ANISOMYCIN]

>  <Numeric Result>
7.60

$$$$

###

test system: Plasmodium berghei; assay: Antimalarial activity against Plasmodium berghei GFP ANKA infected in NMRI mice (Mus musculus) assessed as survival at 100 mg/kg, perorally administered as single dose 24 hrs post infection for 1 day measured 72 hrs post infection; format: functional; conditions: route oral

>  <Compound>
CCN(CC)CCCC(C)Nc1ccnc2cc(Cl)ccc12 (stereo not given)

>  <Survival>
12 days

$$$$
>  <Compound>
OC(c1cc(C(F)(F)F)nc2c(C(F)(F)F)cccc12)C1CCCCN1 (stereo not given)

>  <Survival>
28 days

$$$$
>  <Compound>
CO[C@H]1O[C@@H]2O[C@@]3(C)CC[C@H]4[C@H](C)CC[C@@H]([C@H]1C)[C@@]24OO3

>  <Survival>
>7.6 days

$$$$
>  <Compound>
C[C@H]1[C@H](OC(=O)CCC(=O)O)O[C@@H]2O[C@@]3(C)CC[C@H]4[C@H](C)CC[C@@H]1[C@@]24OO3 [ARTESUNATE]

>  <Survival>
6.7 days

$$$$
>  <Compound>
C[C@H]1Cc2c([nH]c3cc(Cl)c(F)cc23)[C@@]2(N1)C(=O)Nc1ccc(Cl)cc12

>  <Survival>
>30 days

$$$$
